Target: human FSH receptor (Homo sapiens, UniProt P23945)
Construct: expressed in transfected cells; host or cells: Chinese Hamster Ovary (CHO) cells, stably transfected, cotransfected with CRE/promotor-firefly luciferase reporter
Sequence (P23945 18-695): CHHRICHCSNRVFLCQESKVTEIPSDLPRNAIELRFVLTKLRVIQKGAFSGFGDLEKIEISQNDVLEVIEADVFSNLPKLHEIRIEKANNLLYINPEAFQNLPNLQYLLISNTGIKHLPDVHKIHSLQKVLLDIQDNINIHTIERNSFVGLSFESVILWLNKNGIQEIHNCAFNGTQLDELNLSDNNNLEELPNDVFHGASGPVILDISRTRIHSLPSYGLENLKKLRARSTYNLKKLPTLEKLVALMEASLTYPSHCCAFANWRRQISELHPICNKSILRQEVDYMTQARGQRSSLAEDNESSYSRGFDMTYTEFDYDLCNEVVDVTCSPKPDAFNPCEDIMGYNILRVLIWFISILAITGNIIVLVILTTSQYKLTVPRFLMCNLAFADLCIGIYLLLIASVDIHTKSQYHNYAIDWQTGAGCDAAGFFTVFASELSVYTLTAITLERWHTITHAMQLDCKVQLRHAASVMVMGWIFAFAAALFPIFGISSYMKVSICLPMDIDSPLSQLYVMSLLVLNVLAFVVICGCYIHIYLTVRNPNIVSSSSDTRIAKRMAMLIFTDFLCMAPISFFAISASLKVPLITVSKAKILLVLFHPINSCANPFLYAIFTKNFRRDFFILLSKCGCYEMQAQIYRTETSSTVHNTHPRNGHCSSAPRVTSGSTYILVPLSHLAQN
Assay: Agonistic activity of compounds at the human FSH receptor expressed in CHO cells, CRE/luciferase reporter (hFSHRago (CHO luc))
Assay type: cell-based
Details: CHO cells stably transfected with the human FSH receptor and CRE/firefly luciferase reporter; 4 hours of incubation; half-maximal stimulation relative to the compound's own maximal effect; read-out: hFSHRago (CHO luc) EC50
pEC50: −log10 of the molar value.
Here, each record is paired with measured pEC50 data.

>  <molecule>
COc1cc2c(cc1N1CCOCC1)-c1c(-c3cccs3)nc(C(=O)N(C)C(C)(C)C)n1CC2

>  <system_name>
human FSH receptor (Homo sapiens, UniProt P23945)

>  <pEC50>
6.95

$$$$
>  <molecule>
COc1cc2c(cc1C(=O)NC(C)C)-c1c(-c3cccs3)nc(C(=O)N(C)C(C)(C)C)n1CC2

>  <system_name>
human FSH receptor (Homo sapiens, UniProt P23945)

>  <pEC50>
7.74

$$$$
>  <molecule>
CCc1nnc(NC(=O)c2cc3c(cc2OC)CCn2c(C(=O)N(C)C(C)(C)C)nc(-c4cccs4)c2-3)s1

>  <system_name>
human FSH receptor (Homo sapiens, UniProt P23945)

>  <pEC50>
7.24

$$$$
>  <molecule>
COc1cc2c(cc1-c1cccc(N)c1)-c1c(-c3cccs3)nc(C(=O)N(C)C(C)(C)C)n1CC2

>  <system_name>
human FSH receptor (Homo sapiens, UniProt P23945)

>  <pEC50>
8.10

$$$$
>  <molecule>
COc1cc2c(cc1OC)-c1c(-c3cccs3)nc(C(=O)N3CCCOCC3)n1CC2

>  <system_name>
human FSH receptor (Homo sapiens, UniProt P23945)

>  <pEC50>
6.50

$$$$
>  <molecule>
COc1cc2c(cc1-c1cccc(C(F)(F)F)c1)-c1c(-c3cccs3)nc(C(=O)N(C)C(C)(C)C)n1CC2

>  <system_name>
human FSH receptor (Homo sapiens, UniProt P23945)

>  <pEC50>
7.19

$$$$
>  <molecule>
COc1cc2c(cc1C=C(C)C)-c1c(-c3cccs3)nc(C(=O)N(C)C(C)(C)C)n1CC2 [Example 36c]

>  <system_name>
human FSH receptor (Homo sapiens, UniProt P23945)

>  <pEC50>
8.70

$$$$
>  <molecule>
COc1cc2c(cc1-c1cccc(N3CCOCC3)c1)-c1c(-c3cccs3)nc(C(=O)N(C)C(C)(C)C)n1CC2

>  <system_name>
human FSH receptor (Homo sapiens, UniProt P23945)

>  <pEC50>
8.70

$$$$

###

biological target: human FSH receptor (Homo sapiens, UniProt P23945); construct: expressed in transfected cells; host or cells: Chinese Hamster Ovary (CHO) cells, stably transfected, cotransfected with CRE/promotor-firefly luciferase reporter; assay: Agonistic activity of compounds at the human FSH receptor expressed in CHO cells, CRE/luciferase reporter (hFSHRago (CHO luc)); assay type: cell-based; settings: CHO cells stably transfected with the human FSH receptor and CRE/firefly luciferase reporter; 4 hours of incubation; half-maximal stimulation relative to the compound's own maximal effect; read-out: hFSHRago (CHO luc) EC50
Here, each record is paired with measured EC50 data.

>  <compound>
COc1cccc(Oc2cc3c(cc2OC)CCn2c(C(=O)N(C)C(C)(C)C)nc(-c4cccs4)c2-3)c1 [Example 43b]

>  <EC50, nM>
447

$$$$
>  <compound>
C=Cc1cc2c(cc1OC)CCn1c(C(=O)N(C)C(C)(C)C)nc(-c3cccs3)c1-2 [Example 3b]

>  <EC50, nM>
28

$$$$
>  <compound>
COc1cc2c(cc1-c1cccc(-n3cccn3)c1)-c1c(-c3cccs3)nc(C(=O)N(C)C(C)(C)C)n1CC2 [Example 2g]

>  <EC50, nM>
2

$$$$
>  <compound>
CCC1CCCN1C(=O)c1nc(-c2cccs2)c2n1CCc1cc(OC)c(OC(C)C)cc1-2 (stereo not shown) [Example 23]

>  <EC50, nM>
63

$$$$

###

Target: human FSH receptor (Homo sapiens)
Construct: expressed in transfected cells; host or cells: Chinese Hamster Ovary (CHO) cells, stably transfected, cotransfected with CRE/promotor-firefly luciferase reporter
Sequence (P23945 18-695): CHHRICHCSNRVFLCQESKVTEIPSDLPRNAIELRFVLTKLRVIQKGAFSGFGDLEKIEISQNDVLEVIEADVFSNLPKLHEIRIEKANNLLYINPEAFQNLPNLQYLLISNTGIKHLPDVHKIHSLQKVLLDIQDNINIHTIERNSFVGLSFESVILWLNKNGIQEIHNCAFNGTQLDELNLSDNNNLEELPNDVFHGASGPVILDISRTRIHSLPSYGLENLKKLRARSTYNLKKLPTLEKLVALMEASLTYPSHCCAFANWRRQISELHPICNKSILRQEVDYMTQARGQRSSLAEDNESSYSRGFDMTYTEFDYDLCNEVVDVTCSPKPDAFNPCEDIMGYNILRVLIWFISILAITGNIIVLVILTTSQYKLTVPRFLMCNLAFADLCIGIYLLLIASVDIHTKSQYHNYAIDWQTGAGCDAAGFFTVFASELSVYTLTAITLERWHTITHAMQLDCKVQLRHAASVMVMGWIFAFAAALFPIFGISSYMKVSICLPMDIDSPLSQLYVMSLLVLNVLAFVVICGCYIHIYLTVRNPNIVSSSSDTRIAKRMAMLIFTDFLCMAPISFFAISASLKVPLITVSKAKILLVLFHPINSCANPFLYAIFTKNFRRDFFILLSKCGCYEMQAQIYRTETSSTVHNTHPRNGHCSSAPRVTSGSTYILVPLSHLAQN
Experiment: Agonistic activity of compounds at the human FSH receptor expressed in CHO cells, CRE/luciferase reporter (hFSHRago (CHO luc))
Format: cell-based

>  <structure_notation>
COc1cc2c(cc1-c1cccnc1)-c1c(-c3cccs3)nc(C(=O)N(C)C(C)(C)C)n1CC2

>  <units_label>
nM

>  <EC50>
1

$$$$

###

Here, each record is paired with measured EC50 data.
Target: human FSH receptor (Homo sapiens)
Construct: expressed in transfected cells; host or cells: Chinese Hamster Ovary (CHO) cells, stably transfected, cotransfected with CRE/promotor-firefly luciferase reporter
Sequence (P23945 18-695): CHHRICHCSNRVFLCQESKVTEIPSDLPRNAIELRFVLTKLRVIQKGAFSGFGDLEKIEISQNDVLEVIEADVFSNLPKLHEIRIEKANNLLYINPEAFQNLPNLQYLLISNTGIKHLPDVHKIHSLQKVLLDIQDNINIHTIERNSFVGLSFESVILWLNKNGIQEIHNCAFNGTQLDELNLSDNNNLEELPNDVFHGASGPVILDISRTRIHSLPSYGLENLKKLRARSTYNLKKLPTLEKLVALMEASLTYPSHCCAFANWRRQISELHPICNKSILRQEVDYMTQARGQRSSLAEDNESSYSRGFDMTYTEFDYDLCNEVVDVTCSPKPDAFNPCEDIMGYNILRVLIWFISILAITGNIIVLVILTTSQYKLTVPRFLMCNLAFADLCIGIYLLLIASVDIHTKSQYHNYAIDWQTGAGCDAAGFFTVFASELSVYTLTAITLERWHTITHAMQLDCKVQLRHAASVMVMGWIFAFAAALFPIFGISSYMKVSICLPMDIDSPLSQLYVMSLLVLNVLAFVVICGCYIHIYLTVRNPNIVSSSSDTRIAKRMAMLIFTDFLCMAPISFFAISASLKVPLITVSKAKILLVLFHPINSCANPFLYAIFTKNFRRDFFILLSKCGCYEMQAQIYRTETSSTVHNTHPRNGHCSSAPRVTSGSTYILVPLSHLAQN
Assay: Agonistic activity of compounds at the human FSH receptor expressed in CHO cells, CRE/luciferase reporter (hFSHRago (CHO luc))
Type: cell-based
Settings: CHO cells stably transfected with the human FSH receptor and CRE/firefly luciferase reporter; 4 hours of incubation; half-maximal stimulation relative to the compound's own maximal effect; read-out: hFSHRago (CHO luc) EC50
quantity: EC50

>  <compound>
COc1cc2c(cc1-c1cccc(N3CCN(C(=O)OC(C)(C)C)CC3)c1)-c1c(-c3cccs3)nc(C(=O)N(C)C(C)(C)C)n1CC2

>  <system_name>
human FSH receptor (Homo sapiens)

>  <measured_value>
14 nM

$$$$
>  <compound>
COc1cc2c(cc1OC(C)C)-c1c(-c3cccs3)nc(C(=O)N3CC4CC(CN(C(C)=O)C4)C3)n1CC2 [Example 29c]

>  <system_name>
human FSH receptor (Homo sapiens)

>  <measured_value>
21 nM

$$$$
>  <compound>
COc1cc2c(cc1CC(C)C)-c1c(-c3ncco3)nc(C(=O)N(C)C(C)(C)C)n1CC2 [Example 37f]

>  <system_name>
human FSH receptor (Homo sapiens)

>  <measured_value>
380 nM

$$$$
>  <compound>
CCN(C(=O)c1nc(-c2cccs2)c2n1CCc1cc(OC)c(OCCO)cc1-2)C(C)(C)C [Example 34b]

>  <system_name>
human FSH receptor (Homo sapiens)

>  <measured_value>
3 nM

$$$$
>  <compound>
COc1cc2c(cc1OCCNC(C)=O)-c1c(-c3cccs3)nc(C(=O)N(C)C(C)(C)C)n1CC2

>  <system_name>
human FSH receptor (Homo sapiens)

>  <measured_value>
559 nM

$$$$
>  <compound>
COc1cc2c(cc1OC)-c1c(-c3cccs3)nc(C(=O)N3CCCC3C)n1CC2 (stereo not shown) [Example 24c]

>  <system_name>
human FSH receptor (Homo sapiens)

>  <measured_value>
333 nM

$$$$
>  <compound>
CCN(C)CC(=O)Nc1cc2c(cc1OC)CCn1c(C(=O)N(C)C(C)(C)C)nc(-c3cccs3)c1-2 [Example 13b]

>  <system_name>
human FSH receptor (Homo sapiens)

>  <measured_value>
26 nM

$$$$

Values from patent EP2435433B1
